Values compiled from ChEMBL document CHEMBL6127041.

Recorded measurements of log10(IC50), one per entry
target: Acetylcholinesterase (Homo sapiens, UniProt P22303); test: Inhibition of AChE (unknown origin)
Sequence (P22303 whole entry): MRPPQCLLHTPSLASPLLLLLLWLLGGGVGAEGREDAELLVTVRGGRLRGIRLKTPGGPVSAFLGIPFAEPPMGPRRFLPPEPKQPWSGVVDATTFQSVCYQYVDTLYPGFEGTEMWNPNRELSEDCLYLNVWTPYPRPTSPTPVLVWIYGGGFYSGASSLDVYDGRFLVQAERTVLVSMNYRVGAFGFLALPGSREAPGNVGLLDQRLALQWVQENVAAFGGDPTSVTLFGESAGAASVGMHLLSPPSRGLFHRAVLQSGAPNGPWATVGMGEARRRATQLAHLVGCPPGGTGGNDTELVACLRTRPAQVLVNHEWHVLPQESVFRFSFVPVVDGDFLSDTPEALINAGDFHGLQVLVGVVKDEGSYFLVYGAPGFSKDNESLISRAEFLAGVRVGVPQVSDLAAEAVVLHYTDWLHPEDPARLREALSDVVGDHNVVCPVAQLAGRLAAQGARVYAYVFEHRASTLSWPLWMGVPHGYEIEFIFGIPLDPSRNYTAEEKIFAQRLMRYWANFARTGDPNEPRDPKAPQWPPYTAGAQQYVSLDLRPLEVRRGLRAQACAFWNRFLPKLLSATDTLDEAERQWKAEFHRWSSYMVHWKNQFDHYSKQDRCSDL
quantity-name: log10(IC50) (log10 of the value in nM)

{"chemical-smiles": "O=c1[nH]c(COCCC2CCN(Cc3ccccc3)CC2)nc2c1cnn2C1CCCC1", "log10(IC50)": 2.36}
{"chemical-smiles": "O=c1[nH]c(CCCCC2CCN(Cc3ccccc3)CC2)nc2c1cnn2C1CCCC1", "log10(IC50)": 1.60}
{"chemical-smiles": "COc1ccc(/C=C/C(=O)c2ccccc2O)cc1OC", "log10(IC50)": 4.45}
{"chemical-smiles": "O=C(/C=C/c1ccccc1)c1ccccc1", "log10(IC50)": 4.45}
{"chemical-smiles": "O=c1[nH]c(CNCCC2CCN(Cc3ccccc3)CC2)nc2c1cnn2C1CCCC1", "log10(IC50)": 2.46}

----------
target: Beta-secretase 1 (Homo sapiens, UniProt P56817); test: Inhibition of BACE-1 (unknown origin)
Sequence (P56817 whole entry): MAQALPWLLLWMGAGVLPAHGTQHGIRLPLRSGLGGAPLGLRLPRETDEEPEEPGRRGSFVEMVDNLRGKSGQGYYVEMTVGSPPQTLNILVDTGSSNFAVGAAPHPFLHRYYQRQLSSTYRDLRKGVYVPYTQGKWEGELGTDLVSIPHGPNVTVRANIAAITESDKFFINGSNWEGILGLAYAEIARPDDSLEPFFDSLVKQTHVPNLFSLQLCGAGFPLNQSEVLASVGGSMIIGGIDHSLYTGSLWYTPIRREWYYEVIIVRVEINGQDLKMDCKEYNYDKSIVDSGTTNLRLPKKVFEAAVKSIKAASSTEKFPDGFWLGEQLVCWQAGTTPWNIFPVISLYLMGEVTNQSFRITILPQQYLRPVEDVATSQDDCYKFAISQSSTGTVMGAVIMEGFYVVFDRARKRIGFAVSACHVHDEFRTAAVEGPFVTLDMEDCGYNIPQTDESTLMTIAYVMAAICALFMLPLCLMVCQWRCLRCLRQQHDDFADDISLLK

{"chemical-smiles": "O=C(N/N=C/c1ccc([N+](=O)[O-])cc1)c1ccc(Cl)nc1", "IC50, nM": 200}
{"chemical-smiles": "Fc1ccc(-c2nnc(N3CCN(c4ccccn4)CC3)o2)c(F)c1", "IC50, nM": 210}
{"chemical-smiles": "CCOc1cc(/C=N/NC(=O)c2ccc(Cl)nc2)ccc1O", "IC50, nM": 700}
{"chemical-smiles": "Clc1ccc(-c2nnc(CNC3CCN(Cc4ccccc4)CC3)o2)c(Cl)c1", "IC50, nM": 250}
{"chemical-smiles": "COC(=O)c1ccc(/C=N/NC(=O)c2ccc(Cl)nc2)cc1", "IC50, nM": 2800}
{"chemical-smiles": "COc1ccc(/C=N/NC(=O)c2ccc(Cl)nc2)cc1OC", "IC50, nM": 400}
{"chemical-smiles": "COc1cc(/C=N/NC(=O)c2ccc(Cl)nc2)ccc1O", "IC50, nM": 600}

----------
molecular target: Cholinesterase (Homo sapiens); test: Inhibition of BChE (unknown origin) incubated for 10 mins by Ellman's method
pIC50: −log10 of the molar value.
In this section we review reported pIC50 values for a set of compounds.

{"chemical-smiles": "CCN(CCCCOc1ccc(C(=O)/C=C/c2ccc(N(C)C)cc2)c(O)c1)Cc1ccccc1N(C)C", "prefix-operator": "=", "pIC50": 6.89}
{"chemical-smiles": "O=C(/C=C/c1ccc(Cl)cc1)c1ccc(Cl)s1", "prefix-operator": "=", "pIC50": 4.71}
{"chemical-smiles": "O=C(/C=C/c1ccc(F)cc1)c1ccc(Br)s1", "prefix-operator": "=", "pIC50": 4.79}
{"chemical-smiles": "O=C(/C=C/c1ccc(Br)cc1)c1ccc(Cl)s1", "prefix-operator": "=", "pIC50": 4.71}
{"chemical-smiles": "CN1CCN(c2ccc(C(=O)/C=C/c3cc(Br)ccc3F)cc2)CC1", "prefix-operator": "=", "pIC50": 5.03}
{"chemical-smiles": "O=C(/C=C/c1ccccc1)c1ccc(N2CCOCC2)cc1", "prefix-operator": "<", "pIC50": 4.40}
{"chemical-smiles": "CN(C)c1ccc(/C=C/C(=O)c2ccc(N3CCOCC3)cc2)cc1", "prefix-operator": "<", "pIC50": 4.40}

----------
This section presents compounds with their documented IC50 values.
molecular target: Glycogen synthase kinase-3 beta (Homo sapiens); assay: Inhibition of human recombinant GSK3beta by ADP-Glo Kinase Assay

{"chemical-smiles": "COc1nc(-c2ccnc(NC(=O)C3CC3)c2)sc1C(=O)NCNc1c2c(nc3ccccc13)CCCC2", "IC50 [nM]": 68}
{"chemical-smiles": "COc1nc(-c2ccnc(NC(=O)C3CC3)c2)sc1C(=O)NCCNc1c2c(nc3ccccc13)CCCC2", "IC50 [nM]": 66}

----------
target: Cholinesterase (Homo sapiens, UniProt P06276); test: Inhibition of human BChE using butyrylthiocholineiodide as substrate measured for 30 mins by Ellman's method
Sequence (P06276 whole entry): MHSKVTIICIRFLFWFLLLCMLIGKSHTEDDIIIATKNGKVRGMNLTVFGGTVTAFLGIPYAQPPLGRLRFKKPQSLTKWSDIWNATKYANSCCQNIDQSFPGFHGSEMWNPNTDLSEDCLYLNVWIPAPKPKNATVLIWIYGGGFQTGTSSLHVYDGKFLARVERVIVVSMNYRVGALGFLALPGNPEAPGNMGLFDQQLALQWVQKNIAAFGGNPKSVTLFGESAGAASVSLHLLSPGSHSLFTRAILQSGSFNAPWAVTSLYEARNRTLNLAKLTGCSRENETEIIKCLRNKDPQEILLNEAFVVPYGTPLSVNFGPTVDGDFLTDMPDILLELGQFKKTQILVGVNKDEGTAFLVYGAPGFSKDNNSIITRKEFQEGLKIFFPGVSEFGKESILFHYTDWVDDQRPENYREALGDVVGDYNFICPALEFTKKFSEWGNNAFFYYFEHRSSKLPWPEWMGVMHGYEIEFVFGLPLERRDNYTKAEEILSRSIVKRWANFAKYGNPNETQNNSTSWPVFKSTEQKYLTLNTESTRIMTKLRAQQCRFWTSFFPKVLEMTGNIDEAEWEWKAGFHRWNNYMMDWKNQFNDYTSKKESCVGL

{"chemical-smiles": "[O-]/[N+](=C\\c1ccc2cccc(O)c2n1)Cc1ccccc1", "result-units": "nM", "IC50": 1}

----------
target: Amine oxidase [flavin-containing] A (Homo sapiens, UniProt P21397); experiment: Inhibition of MAO-A (unknown origin)
Sequence (P21397 whole entry): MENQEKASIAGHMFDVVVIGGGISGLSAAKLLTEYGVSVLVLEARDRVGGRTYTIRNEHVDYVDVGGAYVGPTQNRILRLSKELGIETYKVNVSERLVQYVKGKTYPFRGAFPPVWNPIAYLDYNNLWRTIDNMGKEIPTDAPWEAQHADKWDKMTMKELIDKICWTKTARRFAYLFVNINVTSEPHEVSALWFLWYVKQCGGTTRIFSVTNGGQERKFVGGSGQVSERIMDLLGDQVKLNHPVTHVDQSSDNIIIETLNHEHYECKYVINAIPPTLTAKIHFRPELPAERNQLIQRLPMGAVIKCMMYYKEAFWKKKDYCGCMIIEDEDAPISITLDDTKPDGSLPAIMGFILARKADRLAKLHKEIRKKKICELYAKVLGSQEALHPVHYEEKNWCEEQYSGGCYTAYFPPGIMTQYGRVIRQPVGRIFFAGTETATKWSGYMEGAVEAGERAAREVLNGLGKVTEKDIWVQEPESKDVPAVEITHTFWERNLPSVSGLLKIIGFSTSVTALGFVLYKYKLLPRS
log10(IC50) values, listed per item
quantity-name: log10(IC50) (log10 of the value in µM)

{"chemical-smiles": "CCOc1ccc(C(=O)/C=C/c2ccccc2)cc1", "log10(IC50)": 1.45}
{"chemical-smiles": "O=C(/C=C/c1ccc(F)cc1)c1ccc(Br)s1", "log10(IC50)": 0.61}
{"chemical-smiles": "CCO/C(C)=N/Oc1ccc(/C=C/C(=O)c2ccc(F)cc2)cc1", "log10(IC50)": 1.24}
{"chemical-smiles": "O=C(/C=C/c1ccc(OCc2ccccc2)cc1)c1ccc2c(c1)OCO2", "log10(IC50)": 0.94}
{"chemical-smiles": "O=C(/C=C/c1ccc(Br)cc1)c1ccc(Cl)s1", "log10(IC50)": 0.13}
{"chemical-smiles": "O=C(/C=C/c1ccc(Cl)cc1)c1ccc(Cl)s1", "log10(IC50)": 0.20}
{"chemical-smiles": "CCO/C(C)=N/Oc1ccc(/C=C/C(=O)c2ccc(C)cc2)cc1", "log10(IC50)": 1.18}

----------
molecular target: Acetylcholinesterase (Homo sapiens, UniProt P22303); assay: Inhibition of AChE (unknown origin) using acetylthiocholine iodide as substrate measured for 20 mins by Ellman's method
pIC50: −log10 of the molar value.
quantity-name: pIC50

{"chemical-smiles": "COc1ccccc1/C=C1\\Oc2cc(OCCN3CCCC3)ccc2C1=O", "quantity-name": "pIC50", "data-value": 5.57}
{"chemical-smiles": "COc1cc(/C=C2\\Oc3cc(OCCN4CCCCC4)ccc3C2=O)cc(OC)c1OC", "quantity-name": "pIC50", "data-value": 5.81}

----------
target: Acetylcholinesterase (Homo sapiens, UniProt P22303); experiment: Inhibition of AChE (unknown origin) using acetylthiocholine iodide as substrate measured after 15 mins by Ellman's method
Rule: IC50 below 3000 nM gives T, anything at or above gives F.

{"chemical-smiles": "Nc1ccccc1C(=O)/C=C/c1cnc2ccccc2c1", "label": "T"}
{"chemical-smiles": "CSc1ccc(/C=C/C(=O)c2ccccc2N)cn1", "label": "T"}
{"chemical-smiles": "Nc1ccccc1C(=O)/C=C/c1ccc(Cl)nc1", "label": "F"}
{"chemical-smiles": "Nc1ccccc1C(=O)/C=C/c1cnc2c(c1)OCO2", "label": "F"}

----------
target: Acetylcholinesterase (Homo sapiens, UniProt P22303); test: Inhibition of human AChE using acetylthiocholine iodide as substrate after 15 mins by Ellman's method
pIC50: −log10 of the molar value.

{"chemical-smiles": "CNC(=O)c1sc(-c2ccnc(NC(=O)C3CC3)c2)nc1OC1CCN(Cc2ccccc2)CC1", "pIC50": 7.14}

----------
target: cGMP-specific 3',5'-cyclic phosphodiesterase (Homo sapiens)
pIC50: −log10 of the molar value.
quantity-name: pIC50

{"chemical-smiles": "O=C1[C@H]2Cc3c([nH]c4ccccc34)[C@@H](c3ccc4c(c3)OCO4)N2C(=O)CN1CCC1CCN(Cc2ccccc2)CC1", "system-under-test": "cGMP-specific 3',5'-cyclic phosphodiesterase (Homo sapiens)", "data-value": 6.82}

----------
pIC50: −log10 of the molar value.
Measurement record for Acetylcholinesterase (Homo sapiens); quantity recorded: pIC50.

{"chemical-smiles": "c1ccc2oc(CNCCCCCCCNc3c4c(cc5ccccc35)CCCC4)cc2c1", "pIC50": 9.07}
{"chemical-smiles": "COc1nc(-c2ccnc(NC(=O)C3CC3)c2)sc1C(=O)NCCNc1c2c(nc3ccccc13)CCCC2", "pIC50": 8.19}
{"chemical-smiles": "COc1nc(-c2ccnc(NC(=O)C3CC3)c2)sc1C(=O)NCNc1c2c(nc3ccccc13)CCCC2", "pIC50": 8.20}

----------
target: Acetylcholinesterase (Electrophorus electricus); experiment: Inhibition of electric eel AChE by Ellman's method
Sequence (O42275 whole entry): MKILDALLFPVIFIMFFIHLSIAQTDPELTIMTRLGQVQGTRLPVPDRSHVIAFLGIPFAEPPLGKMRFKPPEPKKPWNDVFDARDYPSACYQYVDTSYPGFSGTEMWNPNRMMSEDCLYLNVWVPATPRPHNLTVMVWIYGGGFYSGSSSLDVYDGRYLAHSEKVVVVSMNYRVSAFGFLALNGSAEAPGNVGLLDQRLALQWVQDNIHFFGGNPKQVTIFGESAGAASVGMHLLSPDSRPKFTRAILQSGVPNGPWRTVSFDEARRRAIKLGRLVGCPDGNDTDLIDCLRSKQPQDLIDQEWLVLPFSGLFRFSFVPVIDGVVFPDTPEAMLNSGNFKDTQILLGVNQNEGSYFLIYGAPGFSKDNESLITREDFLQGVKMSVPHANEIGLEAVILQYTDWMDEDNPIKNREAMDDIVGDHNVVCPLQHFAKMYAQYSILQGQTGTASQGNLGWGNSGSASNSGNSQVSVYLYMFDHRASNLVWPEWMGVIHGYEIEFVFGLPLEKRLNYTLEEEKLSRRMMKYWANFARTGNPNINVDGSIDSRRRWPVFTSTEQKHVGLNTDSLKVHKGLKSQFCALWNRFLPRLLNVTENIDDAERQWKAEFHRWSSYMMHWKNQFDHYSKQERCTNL
pIC50: −log10 of the molar value.
quantity-name: pIC50

{"chemical-smiles": "O=CNc1nccc2c1[nH]c1cc(C(=O)NCCC3CCN(Cc4ccccc4F)CC3)ccc12", "system-under-test": "Acetylcholinesterase (Electrophorus electricus)", "quantity-name": "pIC50", "data-value": 6.57}

----------
target: Glycogen synthase kinase-3 beta (Homo sapiens, UniProt P49841); assay: Inhibition of GSK3beta (unknown origin)
Sequence (P49841 whole entry): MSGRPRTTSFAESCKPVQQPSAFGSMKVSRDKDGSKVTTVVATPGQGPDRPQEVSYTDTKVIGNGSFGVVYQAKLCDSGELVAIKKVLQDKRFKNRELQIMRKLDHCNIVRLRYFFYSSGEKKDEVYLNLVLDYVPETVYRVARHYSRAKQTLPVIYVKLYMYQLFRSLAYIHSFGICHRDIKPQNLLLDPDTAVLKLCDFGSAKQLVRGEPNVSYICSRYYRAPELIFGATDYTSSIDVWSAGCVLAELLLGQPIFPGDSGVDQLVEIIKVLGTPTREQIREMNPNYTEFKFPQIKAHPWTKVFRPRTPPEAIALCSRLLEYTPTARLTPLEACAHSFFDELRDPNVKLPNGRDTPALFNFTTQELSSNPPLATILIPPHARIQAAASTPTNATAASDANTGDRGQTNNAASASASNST

{"chemical-smiles": "Cn1c(NCC(=O)c2ccccc2)nc(-c2ccncc2)cc1=O", "IC50 [µM]": 5.63}

----------
Target: Amine oxidase [flavin-containing] B (Homo sapiens)
Sequence (P27338 whole entry): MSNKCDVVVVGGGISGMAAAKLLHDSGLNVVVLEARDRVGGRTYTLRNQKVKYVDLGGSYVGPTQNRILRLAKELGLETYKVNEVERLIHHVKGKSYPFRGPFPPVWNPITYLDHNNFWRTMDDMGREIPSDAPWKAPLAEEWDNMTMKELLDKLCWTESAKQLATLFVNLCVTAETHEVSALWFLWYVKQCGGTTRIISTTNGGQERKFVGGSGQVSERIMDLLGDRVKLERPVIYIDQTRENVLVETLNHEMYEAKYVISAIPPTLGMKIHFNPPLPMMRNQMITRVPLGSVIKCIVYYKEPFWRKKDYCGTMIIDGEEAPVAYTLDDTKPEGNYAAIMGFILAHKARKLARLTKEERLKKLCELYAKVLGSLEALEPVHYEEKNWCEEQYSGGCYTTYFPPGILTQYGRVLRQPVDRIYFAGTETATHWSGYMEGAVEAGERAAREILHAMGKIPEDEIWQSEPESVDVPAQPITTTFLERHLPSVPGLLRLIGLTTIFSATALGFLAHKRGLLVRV
Test: Inhibition of human MAO-B using Tyramine hydrochloride as substrate preincubated for 30 mins followed by substrate addition and measured for 1 hr by fluorometric method
pIC50: −log10 of the molar value.

{"chemical-smiles": "COc1ccc(/C=C/C(=O)c2ccccc2O)cc1OC", "pIC50": 5.85}
